Target: T1, human LRRC15 extracellular domain with C-terminal His tag (human, UniProt Q8TF66 22-538)
T1 construct: Recombinant, made in HEK293; the entry holds the extracellular domain and the His tag; SPR analyte; also called TPP-1545; hLRRC15 CT-His
T1 sequence: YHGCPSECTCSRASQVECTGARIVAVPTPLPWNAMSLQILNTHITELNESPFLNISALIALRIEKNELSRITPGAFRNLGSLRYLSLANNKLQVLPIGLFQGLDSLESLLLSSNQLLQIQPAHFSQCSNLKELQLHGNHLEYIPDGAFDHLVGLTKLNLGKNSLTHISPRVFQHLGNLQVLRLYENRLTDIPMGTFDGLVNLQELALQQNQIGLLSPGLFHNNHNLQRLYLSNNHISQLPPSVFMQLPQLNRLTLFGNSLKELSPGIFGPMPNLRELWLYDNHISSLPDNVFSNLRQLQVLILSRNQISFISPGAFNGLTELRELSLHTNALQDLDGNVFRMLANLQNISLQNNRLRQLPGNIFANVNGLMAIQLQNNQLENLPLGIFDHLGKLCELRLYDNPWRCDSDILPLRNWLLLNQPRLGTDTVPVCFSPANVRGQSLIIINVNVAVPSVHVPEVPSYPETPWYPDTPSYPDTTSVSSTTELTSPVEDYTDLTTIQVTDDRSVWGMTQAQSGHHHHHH
Assay: SPR Biacore T200, 25°C, antibody captured, LRRC15 analyte

| binder | Kd |
| --- | --- |
| TPP-17074 (antibody, human IgG1, kappa, V domains shown, also called 438H-M161-K22-hIgG1) VH: EVQLLESGGGLVQPGGSLRLSCAASGFTFSGYMMSWVRQAPGKGLEWVSGIYPSGGYALYADSVKGRFTISRDNSKNTLYLQMNSLRAEDTAVYYCAREKAADLFGSYSEALDYWGQGTLVTVSS VL: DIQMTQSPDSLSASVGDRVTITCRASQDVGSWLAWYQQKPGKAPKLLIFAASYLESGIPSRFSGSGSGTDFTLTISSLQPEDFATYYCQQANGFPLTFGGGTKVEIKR | 0.19 nM |
| TPP-17405 (antibody, human IgG1, kappa, V domains shown, also called 438H-M345-F05-hIgG1Kappa) VH: EVQLVQSGAEVKKPGASVKVSCKASGYKFSSYWIEWVKQAPGQGLEWIGEILPGSDTTNYNEKFKDRATFTSDTSINTAYMELSRLRSDDTAVYYCARDRGNYRAWFQYWGQGTLVTVSS VL: DIQMTQSPSSLSASVGDRVTITCRASQRISSYLNWYQQKPGGAPKFLIYYASSLQSGVPSRFSGSGSGTDYTLTISSLQPEDFATYYCDQGLELPWTFGGGTKVEIKR | 0.86 nM |
| TPP-1633 (antibody, human IgG1, kappa, V domains shown, also called 060E-M016-G14-hIgG1) VH: EVQLLESGGGLVQPGGSLRLSCAASGFTFSGYMMQWVRQAPGKGLEWVSGIYPSGGYTNYADSVKGRFTISRDNSKNTLYLQMNSLRAEDTATYYCAREKASDLSGSYSEALDYWGQGTLVTVSS VL: DIQMTQSPDSLSASVGDRVTITCRASQDVGSWLAWYQQKPGKAPKLLIFAASSLESGIPSRFSGSGSGTDFTLTISSLQPEDFATYYCQQANGFPLTFGGGTKVEIKR | 150 nM |
